Below: a set of entries, each annotated with reported % Stimulation Above Control.
Test system: voltage sensitive calcium channels
Assay: Potentiation of Calcium Influx across the Membrane (Quin 2 fluorescence)
Type: cell-based, murine
Conditions: NG108-15 (NGI08-15 [sic]) cells, KCl 50 mM depolarization, 37° C, percent enhancement over potassium chloride stimulation
Description: This test system was developed to evaluate the relative ability of compounds to potentiate calcium influx into cells via voltage sensitive calcium channels. […] There it is transformed by enzymes into the fluorescent dye Quin 2 which cannot leave the cell Quin 2 has a high affinity for calcium ions and when calcium is bound to the dye, the complex fluoresces, the intensity of the fluorescence being proportional to the concentration of calcium ions. […]
Give the value in % but do not write % after it.

CC1=C(C(=O)OC2CN3CCC2CC3)C(c2cccc([N+](=O)[O-])c2)C([N+](=O)[O-])=C(C)N1 (single isomer, unassigned) [(+a, +b)] ... 20
CC1=C(C(=O)OC2CN3CCC2CC3)C(c2cccc([N+](=O)[O-])c2)C([N+](=O)[O-])=C(C)N1 (single isomer, unassigned) [(-a, +b)] ... 25
CC1=C(C(=O)OC2CN3CCC2CC3)C(c2cccc([N+](=O)[O-])c2)C([N+](=O)[O-])=C(C)N1 (single isomer, unassigned) [(+a, -b)] ... 31
COC(=O)C1=C(C)NC(C)=C([N+](=O)[O-])C1c1ccccc1C(F)(F)F (centres unmarked) ... 38

Note: attention shifts to another entry.
Ask: Entry CC1=C(C(=O)OC2CN3CCC2CC3)C(c2cccc([N+](=O)[O-])c2)C([N+](=O)[O-])=C(C)N1 (single isomer, unassigned) [(-a, -b)] , system voltage sensitive calcium channels: what % Stimulation Above Control was measured?
Reply: 10

The measured values listed here are drawn from patent US4975437A.
